// reported growth per item
tested on: SR leukemia; assay: NCI-60 one-dose screen, 48 h (100 = growth as untreated, 0 = no growth, -100 = all killed); details: 10 µM unless noted
This is part of a sample that, as a whole, favours compounds with a hit. Of some 83,000 tested, about 20% had one in any assay.
Hi! Could you send only the number? It should be in %, unit omitted.

C=CC[n+]1c(/C=C2\Sc3ccccc3N2C)sc(-c2ccccc2)c1-c1ccccc1; 1.88

Problem: Fill in the blank: the reported growth of COc1cc(NC2CCC(=O)N2c2ccc(Cl)cc2Cl)cc(OC)c1OC (centres undefined) is ____.
Solution: 95.6

Problem: Fill in the blank: the reported growth of COc1ccc2c(CCCc3ccc(Cl)cc3Cl)c3[n+](cc2c1OC)CCc1cc2c(cc1-3)OCO2 is ____.
Solution: -38.6

Problem: Fill in the blank: the reported growth of COC(=O)[C@@H](C)CNS(=O)(=O)N(c1cc(C(F)(F)F)cc(C(F)(F)F)c1)C1CCN(Cc2ccc(F)cc2)CC1 is ____.
Solution: 26.7

Problem: Fill in the blank: the reported growth of COc1cc2c(Oc3ccc4[nH]c(C)cc4c3F)ncnc2cc1OCCCN1CCCC1 is ____.
Solution: 84.3

Problem: Fill in the blank: the reported growth of O=C(Nc1ccc(C(=O)Nc2ccc(C3=NCCCN3)cc2)cc1)Nc1ccc(C2=NCCCN2)cc1 is ____.
Solution: 44.5

Problem: Fill in the blank: the reported growth of O=C(Cc1ccc(/C=C/C(=O)c2ncc[nH]2)cc1)Nc1ccc(S(F)(F)(F)(F)F)cc1 is ____.
Solution: 4.88

Problem: Fill in the blank: the reported growth of C[C@@]1(C(=O)Nc2ccc(F)nc2)CCCN1c1nc(Nc2cc(C3CC3)[nH]n2)c2cccn2n1 is ____.
Solution: -0.827

Problem: Fill in the blank: the reported growth of CC[n+]1c(/C=C/C=C2\N(C)c3ccccc3C2(C)C)sc2ccccc21 is ____.
Solution: -5.33

Problem: Fill in the blank: the reported growth of COCCOc1cnc2ccn([C@H](C)c3nnc4c(F)cc(-c5cnn(C)c5)cn34)c(=O)c2c1 is ____.
Solution: 84

Problem: Fill in the blank: the reported growth of O=S1(=O)OC(c2ccc(O)c(Cl)c2)(c2ccc(O)c(Cl)c2)c2ccccc21 is ____.
Solution: 112

Problem: Fill in the blank: the reported growth of COc1ccc(F)c(F)c1C(=O)c1cnc(NC2CCN(S(C)(=O)=O)CC2)nc1N is ____.
Solution: 2.64

Problem: Fill in the blank: the reported growth of CCN(CCN(C)C)C(=O)CNCc1cc(C(N)=O)ccn1 is ____.
Solution: 93

Problem: Fill in the blank: the reported growth of CC(C)n1c(NCCc2ccc(O)c(O)c2)nc2c1c(=O)n(C)c(=O)n2C is ____.
Solution: 87.2

Problem: Fill in the blank: the reported growth of O=C(Nc1ccc(-c2ccnc(Nc3ccc(N4CCOCC4)cc3)n2)cc1)[C@@H]1CCCN1 is ____.
Solution: 4.92

Problem: Fill in the blank: the reported growth of O=C(Nc1cccc(Cl)c1)Nc1ncc(CCNc2ncnc3ccsc23)s1 is ____.
Solution: 19.3

* * *

test system: UO-31 renal; experiment: NCI-60 one-dose screen, 48 h; conditions: 10 µM unless noted
About 83,000 compounds went through this panel and 20% of them were active in at least one assay; those are over-represented in the sample as a whole. The source made the active and inactive calls. The calls were made as follows: active = growth percent below 10; inactive = the rest.
Please reply with one of these outcomes: 1 = active, 0 = inactive

Example cases with answers are listed next.
COC(=O)[C@H](C)NC(=O)[C@@H](OC)[C@@H]1Cc2cc3cc(OC4CC(OC5CC(O)C(O)C(C)O5)C(O)C(C)O4)c(C)c(O)c3c(O)c2C(=O)[C@H]1OC1CC(OC2CC(OC3CC(C)(O)C(O)C(C)O3)C(O)C(C)O2)C(O)C(C)O1 (some centres undefined); 1
O=C1/C(=C\c2cccc(OCCCCCOc3ccc(Cl)cc3)c2)N=C2SCCCN12; 0
O=C(CNc1nc2ccccc2s1)Nc1ccc(-c2nc3ccccc3s2)cc1; 0

Problem: In this assay, the call recorded for CCN1CCN(CCCN(C[C@H]2Cc3ccccc3CN2)[C@H]2CCCc3cccnc32)CC1 was what?
Solution: 0

* * *

test system: MDA-MB-435 melanoma; experiment: NCI-60 one-dose screen, 48 h; details: 10 µM unless noted
The panel holds about 83,000 compounds, 20% with a hit somewhere; the sample as a whole holds those more often. Active and inactive are the calls of the source. Rule for the calls: active = growth percent below 10; inactive = the rest.
Please reply with one of these outcomes: active, inactive

Example cases with answers are listed next.
Cc1cc(C(=O)Nc2cc(Oc3ccc4nc(NC(=O)C5CC5)cn4n3)ccc2C)n(C)n1; inactive
COC(=O)C1CCc2sc3ncnc(Nc4cn[nH]c4C(=O)Nc4ccc(CN5CCN(C)CC5)cc4)c3c21 (configuration not stated); inactive
C1=C\COCc2cc(ccc2OCCN2CCCC2)Nc2nccc(n2)-c2cccc(c2)COC/1; active
C=CCCCOC1[C@H](OCc2ccccc2)C(OCc2ccccc2)C(OC)O[C@@H]1CNC(=O)c1cccc(I)c1 (some centres not stated); inactive
CCCCCCCCCNCCCCCCCCC; inactive

Problem: In this assay, the call recorded for COc1ccc(C2OC(c3cc(-c4cc5ccccc5o4)nn3-c3ccccc3)=NN2C(C)=O)cc1 (configuration not stated) was what?
Solution: inactive

Problem: In this assay, the call recorded for CC(=Nc1ccccc1)C1=C(O)C(Cc2ccccc2)NC1=O (configuration not stated) was what?
Solution: active

* * *

test system: SW-620 colon; experiment: NCI-60 one-dose screen, 48 h (100 = growth as untreated, 0 = no growth, -100 = all killed); details: 10 µM unless noted
Compounds without any hit were thinned out: in the full panel of roughly 83,000, 20% have a hit.
// reported growth per item
Hi! Could you send only the number? It should be in %, unit omitted.

CCN1CCN(c2cc(C)nc(N(CCCNc3ccnc4cc(Cl)ccc34)Cc3ccc4c(c3)OCO4)n2)CC1; -3.47

Problem: Fill in the blank: the reported growth of CC[C@H](CO)Nc1nc(NCc2ccccc2)c2ncn(C(C)C)c2n1 is ____.
Solution: 69.3

Problem: Fill in the blank: the reported growth of COc1cc2ncnc3c2cc1OCCCCCN(C)Cc1ccc(Br)cc1N3 is ____.
Solution: 47.7

Problem: Fill in the blank: the reported growth of CC(C)CC(=O)Nc1n[nH]c2c1CN(C(=O)C1CCN(C)CC1)C2(C)C is ____.
Solution: 9.91

* * *

test system: SK-OV-3 ovarian; experiment: NCI-60 one-dose screen, 48 h (100 = growth as untreated, 0 = no growth, -100 = all killed); settings: 10 µM unless noted
Compounds without any hit were thinned out: in the full panel of roughly 83,000, 20% have a hit.
readout: growth (%)
Hi! Could you send only the number? It should be in %, unit omitted.

Problem: Fill in the blank: the reported growth of [2H]C1([2H])[C@H](C)O[C@H](C)C([2H])([2H])N1c1ccc(NC(=O)c2cccc(-c3ccc(OC(F)(F)F)cc3)c2C)cn1 is ____.
Solution: 63.2

Problem: Fill in the blank: the reported growth of CC(N)C(Cc1ccc(Cl)cc1)c1ccc(Cl)cc1 (stereo not drawn) is ____.
Solution: 81.9

Problem: Fill in the blank: the reported growth of CCN(CC)c1cc2oc3cc(N)cc(=N)c-3nc2cc1C is ____.
Solution: 103

Problem: Fill in the blank: the reported growth of Cc1cn(-c2cc(NC(=O)c3ccc(C)c(Nc4nccc(-c5cnccn5)n4)c3)cc(C(F)(F)F)c2)cn1 is ____.
Solution: 59.4

Problem: Fill in the blank: the reported growth of Clc1ccc2c(NCCNc3nc(N4CCCC4)nc4ccccc34)ccnc2c1 is ____.
Solution: -63.3

Problem: Fill in the blank: the reported growth of COC(=O)[C@]12CC[C@@H](C)[C@H](C)[C@@H]1C1=CC[C@@H]3[C@@]4(C)C(C#N)=CC(C)=C4CC[C@@]3(C)[C@]1(C)CC2 is ____.
Solution: 99.3

Problem: Fill in the blank: the reported growth of CCc1nc2cc(/C=C/C(=O)NO)ccc2c(=O)n1CCc1ccc(OC)cc1 is ____.
Solution: 6.67

Problem: Fill in the blank: the reported growth of Cc1cc2c(-c3nc4ccccn4c3Nc3cccc4ccccc34)c(O)c(O)cc2c(O)c1-c1c(C)cc2c(-c3nc4ccccn4c3Nc3cccc4ccccc34)c(O)c(O)cc2c1O is ____.
Solution: 24.2

* * *

tested on: SW-620 colon; test: NCI-60 one-dose screen, 48 h; conditions: 10 µM unless noted
The panel holds about 83,000 compounds, 20% with a hit somewhere; the sample as a whole holds those more often. The source made the active and inactive calls. How the source made its calls: active means growth percent below 10; inactive means the rest.
Please reply with one of these outcomes: active, inactive

Example cases with answers are listed next.
Cc1c(NC(=O)OC[C@@H]2COCCN2)cn2ncnc(Nc3ccc4c(cnn4Cc4cccc(F)c4)c3)c12; active
CC(=O)OC1Oc2ccccc2-c2oc(=O)c(-c3cc4ccc(N(C)C)cc4oc3=O)cc21 (stereo not given); inactive

Problem: In this assay, the call recorded for CCCCCC(=O)OCc1ccc(Cl)c(Cl)c1 was what?
Solution: inactive

Problem: In this assay, the call recorded for Cc1oc2c(C(=O)N/N=C\c3ccc(O)cc3O)c[nH]c2c1C was what?
Solution: inactive

Problem: In this assay, the call recorded for Cc1ccsc1C(NC(=O)c1ccccc1)c1cc(Cl)c2cccnc2c1O (stereo not given) was what?
Solution: inactive

Problem: In this assay, the call recorded for COc1cnc2c(c1)C(=O)c1c-2n(CCCNC2=NCCS2)c(=O)c2cc(Cl)ccc12 was what?
Solution: active

Problem: In this assay, the call recorded for Cc1ccc(N=C2CSc3nnc(-c4csc5c4CCCC5)n3N2)cc1 was what?
Solution: inactive

Problem: In this assay, the call recorded for CCNC(=O)C#Cc1ccc2c(C(=Nc3ccc(CN(C)C)cc3)c3ccccc3)c(O)[nH]c2c1 was what?
Solution: active

Problem: In this assay, the call recorded for ClCc1ccc(-c2ccc(Cn3cnc4nc(Cl)nc(Cl)c43)cc2)cc1 was what?
Solution: active

Problem: In this assay, the call recorded for COc1cc(-c2nc(C(=O)NCC(=O)O)nn2-c2ccc(Cl)cc2)cc(OC)c1OC was what?
Solution: inactive
